assay: Inhibition of [3H](+)-pentazocine binding to sigma receptor of guinea pig brain
Listing: pKi of selected compounds
# log scale: pKi equals minus log10 of the concentration in mol/L

COc1cccc([C@]23CCN(C)[C@H](CC(=O)C2)C3)c1 ... 6.12

Below: the item to evaluate.
Name the reported pKi value associated with the compound C[N+]1(C)CCC2(c3cccc(O)c3)CC(=O)C(=Cc3ccccc3)C1C2 (configuration not stated) 5.27

meta.source: BindingDB's records for doi:10.1021/jm00045a022
